system: K4 kissing-loop RNA reporter; experiment: apparent KD of K4 kissing-loop reporter; higher = weaker reporter binding; conditions: Eterna round: R107; input ligand: FMN 200 uM
MEASURED_QUANTITY: apparent KD of K4 kissing-loop reporter (nM)
Numbers only, in nM.

State recorded apparent KD of K4 kissing-loop reporter for all listed sequences.
1. GCUACCUAGGCAGGAUAUAGACAUUGAGUGAUGUUCGAUGAUUAUCCAUAUUCCCGUCACAUAUGACUAGAAGGGCCUAGGUAGC
2. UGUCAUUGGUCGGCCGCCACUAGGACCGGGUAUAGCCUAGUGAUGUUAGUAAGUACGGCCGCCACUAGGACCGGGACCGAUGACU [KL-SSTryp-B21 #DoubleAptamer]

660
742

====

Please respond with reported apparent KD of MS2 coat protein for every item in the list.
tested on: MS2 coat protein; assay: apparent KD of MS2 coat protein; designed switch direction (-1 OFF switch, 1 ON switch): 1; higher = weaker reporter binding; conditions: input ligand: none
Write down the value, and be sure its unit follows.

Consider the following illustrative entries.
>>> measured("ACAUGAGGAUCACCCAUGUCGGAUAAGGAAACGACCACGUGGGAGGAUAUUGUAACGCGUCUGUACGAGAAGGCCCAUUCCAGU [Eternabot solution 42] (Eterna round: R96, puzzle: Same State NG 3)")
"80.8 nM"
>>> measured("ACAUGAGACUCAGGAUAUCUUGUACCUACAUGUGACAUGAGGAUCACCCAUGUGGUAAGUAUGACAGAGAAGGGAGAGAUAUGU [Equivalance 87 - Jieux - Same State NG 2] (Eterna round: R96, puzzle: Same State NG 2)")
"64.1 nM"
>>> measured("UGGCUCAGACGAGGAUAUGAUCAUGGCGCUUCGGCGCAUACAUGAGGAUCACCCAUGUAAAGUGAUCAGAAGGUGUCUGAGCCA [SSNG2/7-B2] (Eterna round: R96, puzzle: Same State NG 2)")
"14.5 nM"
>>> measured("UUGCUCGUGUGAGGAUAUGCCGCCGUUUCGGCUGCAGAAGGUACUCUAAUACAUGAGGAUCACCCAUGUCUCUGUUGUUUCGUG [salish99_SSNG1_r04_935] (Eterna round: R96, puzzle: Same State NG 1)")
"80.9 nM"

Let's switch to this sequence now.
# lookup: AGCUAGUACCGAGGAUAUACGUACAUGAGGAUCACCCAUGUAUACAUGAUUAAAUGAGACUACAUGUAGAAGGCGGUACUAGCA [Mat - Same State NG 2 - JL mod - D48] (Eterna round: R96, puzzle: Same State NG 2) on MS2 coat protein, apparent KD of MS2 coat protein = 48.1 nM

====

system: K4 kissing-loop RNA reporter; experiment: apparent KD of K4 kissing-loop reporter; higher = weaker reporter binding; details: Eterna round: R107; input ligand: FMN 200 uM
MEASURED_QUANTITY: apparent KD of K4 kissing-loop reporter

>>> measured("UGUCAUUGGUCGGCCGCCACUUCGUGUAGAGUGAUGUUUUGUAGGACGGAUCGAAAGAUCUGUCGGAGGACCGGGACCGAUGACU [FiskerMod 17 - Jieux - Same State - Tryptophan B]")
"228 nM"

Provide each entry's apparent KD of K4 kissing-loop reporter from the list below.
1. AGUGGACGUUACCGGAGUGAUGUUUCGGAUACCAGACACGAAAGUGUCCCUUGGCAGCCGUAGUGAUGUUACGGAGUUCACUAAA [KL-XTheo-A12 #KL 2]
2. UAUAGAGUGACGGCCGCCACUAUUGUGAUUUAAUUGUUUGAGUGAUGUUUUGAUGUUUGAUUUUGUAGGACCGGGUUAUAUGUUA [zdzzmullin]
3. GCAGUGAUGUUGCACGAGUAGGCUGGAGUACGAGGACCGGUACGGCCGCCACUCGUACGGAAGUCGCUAAUUUAUGGAAUGGUGA [#06 K4 Tryptophan A Same State]

1. 125 nM
2. 959 nM
3. 592 nM

Please give apparent KD of K4 kissing-loop reporter for each item listed below.
1. CGUGAAUGUCGUCAGUCAUCGGUCCAUGCACGAGGACCGGUACGGCCGCCACUCGAGCGUGGCAGUGAUGUUGCCAGCGCACUAA [KL-XTryp-A13]
2. GGGAGGAGUGGUGUUGAUUAAGAAGCGGAAGGAGCGCCGAAGAAGGCAGGUAGGUCGCCGGAAUAUAGUGAUGUUAUAUAGAGGG [ExArg.E]
3. AACGUUUUGAGAAGGAGCGCGAUAAGCAGUGAUGUUGCUAAAAUUCUAUUUCAAUUUAAUACGCAGGUAGGUCGCUCAAUACGUA [JR_SSArginiB_Sub020]

138 nM
529 nM
143 nM

====

test system: MS2 coat protein; assay: apparent KD of MS2 coat protein; designed switch direction (-1 OFF switch, 1 ON switch): -1; higher = weaker reporter binding; settings: Eterna round: R95; input ligand: FMN 200 uM
Consider the following sequences; for each one, report its apparent KD of MS2 coat protein.

>>> measured("AGUGCUAACACGAAAGUGUUAGUACAAUAAGCUUGUGAAACAUGAGGAUCACCCAUGUCCUCAUAAGCUCGUCUUAU [salish99_TOv2_r3_014] (puzzle: Sensor v3, turn-off variant 2)")
"17.8 nM"
>>> measured("CUGAGGUAGCGGUCCUAUGACAUGAGGAUCACCCAUGUACCUUGCUUUGAGCUUUAAGCUCGUCUUAUGAUUCUCGG [Mat - Sensor v3 - turn-off var 1 - JL Mod - D44] (puzzle: Sensor v3, turn-off variant 1)")
"504 nM"

Next:
Entry AGUACUAACACGAAAGUGUUAGUACAAUAAGCUUGUGAAACAUGAGGAUCACCCAUGUCCUCAUAGGCUCGUCUUAU [salish99_TOv2_r3_054] (puzzle: Sensor v3, turn-off variant 2) — recorded apparent KD of MS2 coat protein = 26.3 nM

====

test system: K4 kissing-loop RNA reporter; assay: apparent KD of K4 kissing-loop reporter; higher = weaker reporter binding; details: Eterna round: R107; input ligand: arginine 13.2 mM;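 note: bound reporter read as fluorescence of individual clusters on recovered sequencing chips by microscopy, with normalized cluster intensities fitted with a binding model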
Label rule, in plain words: apparent KD of K4 kissing-loop reporter of 300 nM and up is Y, under 300 nM is N.

Solved entries:
>>> class_label("UUUGAAAUGUCUGAUACCAGAGAAAAUAUAUGUAGUGAUGUUAUAUACAAAUUUAAUAAGCUCCCUUGGCAGCAGUAUGAAUUUU [AstrosExc-TheB#14]")
"Y"
>>> class_label("GGCUUGCUAGUGAUGUUAGCAUUUUCUGAAGGAGCGCGUGAAAACGCAGGUAGGUCGCAGAACCUUGCCAACUAUUUUAGUUGCC [Ex Arginine A K4 27]")
"N"
>>> class_label("GCUACCUAGGCAGGAUAUAGACAUUGAGUGAUGUUCGAUGAUUAUCCAUAUUCCCGUCACAUAUGACUAGAAGGGCCUAGGUAGC")
"N"

Given AAGUCUCGUUAAUUCGUGGUUUCGAUCGAUACCAGUAGCGAGAGGUACCCUUGGCAGCGAAAUGAGUGAUGUUCAUGAAAGAAGA [KL-XTheoA11] , state whether its apparent KD of K4 kissing-loop reporter is at least 300 nM.
N

Could you verify whether the entry ACGCAUGGGCAAGGAUAUGGUAGUGAUGUUACCUUUGCGGUGCCGGGAACGAAUGACGGUCAUGCGCCAGAAGGUGCUCAGACAA [theeternabot_exclusion_KL_FMN_B_23] shows apparent KD of K4 kissing-loop reporter of no less than 300 nM?
N

Form field: apparent KD of K4 kissing-loop reporter at least 300 nM? Entry: CCGGCCCAGCCGGAUACCAGUGCGCCGCAGGGAACGGCGGGCCCAGAGUGAUGUUCGGGACACCCUUGGCAGCCGCCUGGGUCGU [#2 Same State - Theophylline B Attempt #28 (HarryS)]
N

State whether the measured apparent KD of K4 kissing-loop reporter reaches 300 nM, counting equality as reaching it, for AGACUUCACCGAAGGAGCGACGUGGUCUAGUGAUGUUAGACACGAGAGAAAUCUCGUAUACGUCAGGUAGGUCGCGGUGAAGUCA [Omei KL Arginine B SS C v9]
N

Identify whether the reported apparent KD of K4 kissing-loop reporter of the following sequence is 300 nM or greater: UGGGUGUAGUGAUGUUAUAUAGAGAGUGAUACCAGUUUAGAGAAGAACCCUUGGCAGCAUAGAAGAGUAUCAUUGGAGAAGAAUG [ExTheophyl.As]
Y

Is apparent KD of K4 kissing-loop reporter at least 300 nM? Consider AUUUAAUGUAUAGAUUAUAUACAUUAUUCAGAGGAUAUGCUUUGAAGCAGAAGGCUGGAUGUAGUGAUGUUGCAAUUUUAAUUUA [JR_SSFMNA_Sub006]
N

Test whether the sequence AAGUGAUGUUGUAGUGAUGUUGUGAUGUUGCAGGAUAUAUAGUGAUGUAGAAGGGUAUGUACAGUUUUUUUUUUUGAGUGAUGAU [vvcvmullin] records apparent KD of K4 kissing-loop reporter of 300 nM or higher.
N

Say whether UGUGAUGUUGUGAUGUUUAGUGUUGUUGGGCAGGAUAUUGUAGAGGCGAGAAGGGCUUGUGUGAUGUAUGAGUGAUGUUUGUAGU [cffdmullin] shows apparent KD of K4 kissing-loop reporter of 300 nM or more.
N

# bool: apparent KD of K4 kissing-loop reporter of ACACUAUCGUCAUAGACGGUAGUGAAAUCACAGGAUAUAAGUGAUGUUAGAAGGGUGAAAGACUGUAUCGAAUAGAUACAGUCAA [FmnA 3 #K4BetweenAptamer #OpenEnded] >= 300 nM
Y

Exam item: decide whether the reported apparent KD of K4 kissing-loop reporter for AGUAUGUAAUAUGGCAUAUUUAGAACUGAAGGAGCGCCGAAUAAGGCAGGUAGGUCGCGGUUUUAUGAGUGAUGUUCUUGUUUAA [KL-SSArg-A24] is at least 300 nM.
N
